tested on: UACC-257 melanoma; assay: NCI-60 one-dose screen, 48 h (100 = growth as untreated, 0 = no growth, -100 = all killed); conditions: 10 µM unless noted
Compounds without any hit were thinned out: in the full panel of roughly 83,000, 20% have a hit.
Measure: growth (%)
State just the number; it will be interpreted in %.

Quick one: growth of O=C(O)c1cc2ccccc2s1 ?
105

Quick one: growth of c1ccc(-c2cn3nc(-c4c[nH]c5ccccc45)sc3n2)cc1 ?
83.2

Quick one: growth of CCn1c2ccccc2c2cc(C(O)c3cccc4ncccc34)ccc21 (stereo unspecified) ?
70.8

Quick one: growth of N#Cc1c(-c2ccc(F)cc2)cc(-c2cccc(Cl)c2)[nH]c1=O ?
93.8

Quick one: growth of Nc1nc(=O)n([C@H]2CC=C(CO)O2)cc1F ?
95.4

Quick one: growth of CC1=NN(c2cccc(Cl)c2)C(=O)/C1=C\C=C\c1ccccc1 ?
63.3
